Hey, just so you know, these numbers are from ChEMBL document CHEMBL1201862.

tested on: NCI-H226; test: NCI tumour cell line growth inhibition, 48 h
The source made the active and inactive calls. Rule as the data show it: active = GI50 up to about 1.1 µM and inactive = higher.
# GI50 values compiled below

Example molecules with recorded GI50:
>>> print(df.to_string())
                                   molecule  experimental_target  readout_kind           measurement
0  CCC1CN2CCc3c([nH]c4ccccc34)C2C[C@@H]1CC(=O)N(C)C (stereo not given in full)             NCI-H226          GI50   > 100 µM (inactive)
1  COC(=O)C1(Cc2ccccc2)Cc2ccc3c(c2C1=O)CCC3 (stereo not given)             NCI-H226          GI50  > 55.6 µM (inactive)
2                 C=CCCn1nc(-c2ccccc2)oc1=O             NCI-H226          GI50   > 100 µM (inactive)

Task: Would you kindly share the measured GI50 for CC(C)[C@@H](C)CC[C@@H](C)C1CC=C2[C@@H]3CCC4C[C@@H](O[Si](C)(C)C(C)(C)C)CC[C@]4(C)C3CC[C@@]21C (stereo not given in full) ?
Output: > 100 µM (inactive)

Task: Another molecule to check: CC1(C)CC2(C)CC1CC2O (stereo not given)
Output: > 100 µM (inactive)

Task: Further, for COC(=O)Nc1nc2ccc(S(=O)(=O)SC)cc2[nH]1 ?
Output: 6.27 µM (inactive)

Task: Next entry: Cc1cc(=O)oc2cc(OC(=O)Nc3ccccc3)ccc12
Output: 73.1 µM (inactive)

Task: Next up: COC(=O)/C=C/c1cnc2c(c1)oc(=O)n2CCc1ccccn1
Output: 17.2 µM (inactive)

Task: Can you handle CC(C)(C)OC(=O)N1CCCC1C(=O)NC(c1ccccc1)c1ccccc1 (stereo not given) next?
Output: > 100 µM (inactive)

Task: Next entry: CN/N=C(/Cc1occc(=O)c1O)C(=O)Nc1ccccc1C
Output: > 100 µM (inactive)

Task: Query COc1ccc(C23OCC(Cc4cc(OC)c(OC)cc42)C3COC(C)=O)cc1OC (stereo not given) next
Output: 5.66 µM (inactive)
